Each recorded value in this set is attributed to PubChem BioAssay AID1963856.

Test system: LG0567-F671-PDC KRAS tumor spheroid viability
PROTOCOL TEXT: Anticancer human tumor LG0567-F671-PDC patient-derived lung adenocarcinoma cell line growth inhibition [KRAS2]
COND: second compound 0.0316 µM; first compound 0.316 µM; active compounds read low; spheroids with HUVEC and MSC
ASSAY ENDPOINT: viability, T/C (%)

{"columns": ["MOLECULE", "ENDPOINT UNIT", "TEST RESULT"],
 "data": [
  ["Cn1nccc1Nc1nccc(-c2cc3c(s2)C(C)(C)N(CCN2CCOCC2)C3=O)n1 + C=CC(=O)N1CCN(c2nc(OCC3CCCN3C)nc3c2CCN(c2cccc4cccc(C)c24)C3)CC1CC#N", "%", 39.7],
  ["CC(C)NCC(C(=O)N1CCN(c2ncnc3c2C(C)CC3O)CC1)c1ccc(Cl)cc1 (stereo not given) + C=CC(=O)N1CCN(c2nc(OCC3CCCN3C)nc3c2CCN(c2cccc4cccc(C)c24)C3)CC1CC#N", "%", 24.6],
  ["CC1COCCN1c1cc(-c2ccnn2C)c2ccnc(-c3ccn[nH]3)c2n1 (stereo not given) + C=CC(=O)N1CCN(c2nc(OCC3CCCN3C)nc3c2CCN(c2cccc4cccc(C)c24)C3)CC1CC#N", "%", 15.6],
  ["COc1cc2nccc(Oc3ccc(NC(=O)C4(C(=O)Nc5ccc(F)cc5)CC4)cc3)c2cc1OC + C=CC(=O)N1CCN(c2nc(OCC3CCCN3C)nc3c2CCN(c2cccc4cccc(C)c24)C3)CC1CC#N", "%", 23.9],
  ["COc1cc(Nc2ncc3c(n2)-c2ccc(Cl)cc2C(c2c(F)cccc2OC)=NC3)ccc1C(=O)O + C=CC(=O)N1CCN(c2nc(OCC3CCCN3C)nc3c2CCN(c2cccc4cccc(C)c24)C3)CC1CC#N", "%", 20.5]
]}

----------
Tested on: LG0567-F671-PDC KRAS tumor spheroid viability
PROTOCOL TEXT: Anticancer human tumor LG0567-F671-PDC cell line growth inhibition [KRAS2];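 further: drug exposure lasted seven days after spheroids formed for three days; 100% = DMSO vehicle control viability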
COND: second compound 10 µM; first compound 1 µM; active compounds read low; spheroids with HUVEC and MSC

{"columns": ["COMPOUND", "ENDPOINT UNIT", "viability, T/C"],
 "data": [
  ["COC(=O)c1ccc2c(C(=Nc3ccc(N(C)C(=O)CN4CCN(C)CC4)cc3)c3ccccc3)c(O)[nH]c2c1 + C=CC(=O)N1CCN(c2nc(=O)n(-c3c(C)ccnc3C(C)C)c3nc(-c4c(O)cccc4F)c(F)cc23)C(C)C1", "%", 24.6],
  ["CC1COCCN1c1cc(-c2ccnn2C)c2ccnc(-c3ccn[nH]3)c2n1 (configuration not stated) + CC1OCC2(CCN(c3cnc(Sc4ccnc(N)c4Cl)c(N)n3)CC2)C1N", "%", 2.99],
  ["CC1COCCN1c1cc(-c2ccnn2C)c2ccnc(-c3ccn[nH]3)c2n1 (configuration not stated) + C=CC(=O)N1CCN(c2nc(=O)n(-c3c(C)ccnc3C(C)C)c3nc(-c4c(O)cccc4F)c(F)cc23)C(C)C1", "%", 12.2],
  ["Cn1nccc1Nc1nccc(-c2cc3c(s2)C(C)(C)N(CCN2CCOCC2)C3=O)n1 + CNCc1ccccc1-c1csc(C(C)Nc2nc(C)nc3cc(OC)c(OC)cc23)c1", "%", 0.16],
  ["CC(=O)OC12COC1CC(O)C1(C)C(=O)C(O)C3=C(C)C(OC(=O)C(O)C(NC(=O)OC(C)(C)C)c4ccccc4)CC(O)(C(OC(=O)c4ccccc4)C21)C3(C)C (configuration not stated) + CNCc1ccccc1-c1csc(C(C)Nc2nc(C)nc3cc(OC)c(OC)cc23)c1", "%", 42.7],
  ["COC(=O)c1ccc2c(C(=Nc3ccc(N(C)C(=O)CN4CCN(C)CC4)cc3)c3ccccc3)c(O)[nH]c2c1 + CC1OCC2(CCN(c3cnc(Sc4ccnc(N)c4Cl)c(N)n3)CC2)C1N", "%", 19.5],
  ["CCNC(=O)CC1N=C(c2ccc(Cl)cc2)c2cc(OC)ccc2-n2c(C)nnc21 (configuration not stated) + CNCc1ccccc1-c1csc(C(C)Nc2nc(C)nc3cc(OC)c(OC)cc23)c1", "%", 0.09]
]}

----------
Tested on: LG0567-F671-PDC KRAS tumor spheroid viability
PROTOCOL TEXT: Anticancer human tumor LG0567-F671-PDC cell line growth inhibition [KRAS2];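 further: drug exposure lasted seven days after spheroids formed for three days; 100% = DMSO vehicle control viability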
COND: second compound 1 µM; first compound 0.1 µM; active compounds read low; spheroids with HUVEC and MSC
Entries and their measured viability, T/C follow.

{"columns": ["MOLECULE", "ENDPOINT UNIT", "viability, T/C"],
 "data": [
  ["CCN1CCN(Cc2ccc(Nc3ncc(F)c(-c4cc(F)c5nc(C)n(C(C)C)c5c4)n3)nc2)CC1 + COc1cc2nc(C)nc(NC(C)c3cc(N)cc(C(F)(F)F)c3)c2cc1OC1CCOC1", "%", 38.7],
  ["CC(C)n1nc(-c2ccc3oc(N)nc3c2)c2c(N)ncnc21 + C=CC(=O)N1CCN(c2nc(=O)n(-c3c(C)ccnc3C(C)C)c3nc(-c4c(O)cccc4F)c(F)cc23)C(C)C1", "%", 6.2],
  ["COc1cc(Nc2ncc3c(n2)-c2ccc(Cl)cc2C(c2c(F)cccc2OC)=NC3)ccc1C(=O)O + CNCc1ccccc1-c1csc(C(C)Nc2nc(C)nc3cc(OC)c(OC)cc23)c1", "%", 53.4]
]}

----------
Test system: LG0567-F671-PDC KRAS tumor spheroid viability
PROTOCOL TEXT: Anticancer human tumor LG0567-F671-PDC cell line growth inhibition [KRAS2]; active means viability on the fitted dose curve at most 10% of control; inactive means the rest;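 further: drug exposure lasted seven days after spheroids formed for three days; 100% = DMSO vehicle control viability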
COND: second compound 0.1 µM; first compound 0.0316 µM; spheroids with HUVEC and MSC
Outcome codes: active, inactive

{"columns": ["MOLECULE", "TGT", "LABEL"],
 "data": [
  ["CC1(C)CCC(CN2CCN(c3ccc(C(=O)NS(=O)(=O)c4ccc(NCC5CCOCC5)c([N+](=O)[O-])c4)c(Oc4cnc5[nH]ccc5c4)c3)CC2)=C(c2ccc(Cl)cc2)C1 + C=CC(=O)N1CCN(c2nc(OCC3CCCN3C)nc3c2CCN(c2cccc4cccc(C)c24)C3)CC1CC#N", "LG0567-F671-PDC KRAS tumor spheroid viability", "inactive"],
  ["CC1OCC2(CCN(c3cnc(Sc4ccnc(N)c4Cl)c(N)n3)CC2)C1N (stereo not given) + CNCc1ccccc1-c1csc(C(C)Nc2nc(C)nc3cc(OC)c(OC)cc23)c1", "LG0567-F671-PDC KRAS tumor spheroid viability", "inactive"],
  ["CCN1CCN(Cc2ccc(Nc3ncc(F)c(-c4cc(F)c5nc(C)n(C(C)C)c5c4)n3)nc2)CC1 + CC1OCC2(CCN(c3cnc(Sc4ccnc(N)c4Cl)c(N)n3)CC2)C1N", "LG0567-F671-PDC KRAS tumor spheroid viability", "inactive"],
  ["CC1(C)CCC(CN2CCN(c3ccc(C(=O)NS(=O)(=O)c4ccc(NCC5CCOCC5)c([N+](=O)[O-])c4)c(Oc4cnc5[nH]ccc5c4)c3)CC2)=C(c2ccc(Cl)cc2)C1 + COc1cc2nc(C)nc(NC(C)c3cc(N)cc(C(F)(F)F)c3)c2cc1OC1CCOC1", "LG0567-F671-PDC KRAS tumor spheroid viability", "inactive"],
  ["CC(C)n1nc(-c2ccc3oc(N)nc3c2)c2c(N)ncnc21 + C=CC(=O)N1CCN(c2nc(=O)n(-c3c(C)ccnc3C(C)C)c3nc(-c4c(O)cccc4F)c(F)cc23)C(C)C1", "LG0567-F671-PDC KRAS tumor spheroid viability", "active"],
  ["Cn1nccc1Nc1nccc(-c2cc3c(s2)C(C)(C)N(CCN2CCOCC2)C3=O)n1 + CC1OCC2(CCN(c3cnc(Sc4ccnc(N)c4Cl)c(N)n3)CC2)C1N", "LG0567-F671-PDC KRAS tumor spheroid viability", "inactive"],
  ["COc1cc(Nc2ncc3c(n2)-c2ccc(Cl)cc2C(c2c(F)cccc2OC)=NC3)ccc1C(=O)O + C=CC(=O)N1CCN(c2nc(=O)n(-c3c(C)ccnc3C(C)C)c3nc(-c4c(O)cccc4F)c(F)cc23)C(C)C1", "LG0567-F671-PDC KRAS tumor spheroid viability", "inactive"],
  ["Cn1ncnc1[C@H]1c2n[nH]c(=O)c3cc(F)cc(c23)N[C@@H]1c1ccc(F)cc1 + C=CC(=O)N1CCN(c2nc(OCC3CCCN3C)nc3c2CCN(c2cccc4cccc(C)c24)C3)CC1CC#N", "LG0567-F671-PDC KRAS tumor spheroid viability", "inactive"],
  ["CCN1CCN(Cc2ccc(Nc3ncc(F)c(-c4cc(F)c5nc(C)n(C(C)C)c5c4)n3)nc2)CC1 + CNCc1ccccc1-c1csc(C(C)Nc2nc(C)nc3cc(OC)c(OC)cc23)c1", "LG0567-F671-PDC KRAS tumor spheroid viability", "inactive"],
  ["O=C(c1cc(Cc2n[nH]c(=O)c3ccccc23)ccc1F)N1CCN(C(=O)C2CC2)CC1 + C=CC(=O)N1CCN(c2nc(OCC3CCCN3C)nc3c2CCN(c2cccc4cccc(C)c24)C3)CC1CC#N", "LG0567-F671-PDC KRAS tumor spheroid viability", "inactive"]
]}
